- assaySystem: Rac GTPase-activating protein 1 (Homo sapiens)
- assayRemarks: blockers of MgcRacGAP-driven Rac1 GTP hydrolysis – biochemical, ADP Hunter fluorescence, primary and confirmatory, confirmation (AID 624330);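 note: fluorescence reports GDP produced by GAP-driven GTP hydrolysis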
- settings: MgcRacGAP-stimulated Rac1 GTP hydrolysis, at 30 µM, hits give high values, GST-tagged Rac1 F28L mutant substrate
Out of some 340,000 compounds screened, about 2,100 (0.62%) were called active. Only a sample is shown. Potency and affinity values are given separately.
outcomeMeasure: inhibition (%)
Record the value in %, omitting the unit from your answer.

Query the reported inhibition for Rac GTPase-activating protein 1 (Homo sapiens); item: Cc1nc2nc(-c3cccs3)[nH]c2cc1Br
10.5

Query the reported inhibition for Rac GTPase-activating protein 1 (Homo sapiens); item: COC(=O)c1cc(NC(=O)c2cccs2)ccc1N1CCOCC1
8.25

Query the reported inhibition for Rac GTPase-activating protein 1 (Homo sapiens); item: Cc1ccc(-n2c(C(C)C)nc3oc4ccccc4c(=O)c3c2=O)cc1
0.93

Query the reported inhibition for Rac GTPase-activating protein 1 (Homo sapiens); item: COc1cc(/C=N/N(c2ccccc2)c2ccccc2)ccc1O
21

Query the reported inhibition for Rac GTPase-activating protein 1 (Homo sapiens); item: COc1ccc2cc(C(=O)Nc3ccc(F)cc3)sc(=O)c2c1OC
0.7

Query the reported inhibition for Rac GTPase-activating protein 1 (Homo sapiens); item: COc1ccc(-c2cnc(NCc3cc4c(cc3[N+](=O)[O-])OCO4)n2C)cc1
28.1

Query the reported inhibition for Rac GTPase-activating protein 1 (Homo sapiens); item: O=C1NC(=O)N(c2ccccc2)C1=O
10

Query the reported inhibition for Rac GTPase-activating protein 1 (Homo sapiens); item: Cn1c(-c2ccc3c(c2)OCO3)cnc1NCc1ccc(Cl)cc1
27.4

Query the reported inhibition for Rac GTPase-activating protein 1 (Homo sapiens); item: Cn1c(-c2ccc(F)cc2)cnc1NCc1cc2c(cc1[N+](=O)[O-])OCO2
27.6

Query the reported inhibition for Rac GTPase-activating protein 1 (Homo sapiens); item: COc1ccc(N=Cc2c(O)ccc3ccccc23)cc1
14.5

Query the reported inhibition for Rac GTPase-activating protein 1 (Homo sapiens); item: CN(C)CCCN1c2ccccc2Sc2ccc3ccccc3c21
15.1

Query the reported inhibition for Rac GTPase-activating protein 1 (Homo sapiens); item: COc1ccc(OC(=O)OCc2ccccc2)cc1
11.7

Query the reported inhibition for Rac GTPase-activating protein 1 (Homo sapiens); item: Oc1ccc2ccccc2c1/C=N/c1nc2c(s1)CCCC2
16

Query the reported inhibition for Rac GTPase-activating protein 1 (Homo sapiens); item: COc1ccc(NC(=O)c2cccs2)cc1
8.32

Query the reported inhibition for Rac GTPase-activating protein 1 (Homo sapiens); item: COc1ccc(-c2cc(=O)c3c(O)cc(O)cc3o2)cc1
-5.2

Query the reported inhibition for Rac GTPase-activating protein 1 (Homo sapiens); item: CCOC(=O)CN1C(=N)N(c2nc(NC(C)C)nc(NC(C)C)n2)CC1=O
7

Query the reported inhibition for Rac GTPase-activating protein 1 (Homo sapiens); item: CCNS(=O)(=O)c1ccc(NC(=O)c2cccnc2)cc1
-7.35

Query the reported inhibition for Rac GTPase-activating protein 1 (Homo sapiens); item: CCOC(=O)c1cc2ccc3ccccc3c2oc1=O
8.31

Query the reported inhibition for Rac GTPase-activating protein 1 (Homo sapiens); item: N#CCCn1c(SCC(=O)c2c[nH]c3ccccc23)nc2ccccc21
15.1

Query the reported inhibition for Rac GTPase-activating protein 1 (Homo sapiens); item: CCOC(=O)c1nn(-c2ccccc2F)c(-c2ccccc2)c1C(=O)c1ccccc1
5.32

Query the reported inhibition for Rac GTPase-activating protein 1 (Homo sapiens); item: O=C(COc1ccccc1F)NCc1nc2ccccc2[nH]1
10.2

Query the reported inhibition for Rac GTPase-activating protein 1 (Homo sapiens); item: COc1cc(NC(=O)c2cccs2)c(OC)cc1NC(=O)c1cccs1
4.2

Query the reported inhibition for Rac GTPase-activating protein 1 (Homo sapiens); item: COc1ccc(OC)c(CN2CCN(CC(=O)Nc3ccccc3C(=O)NC3CC3)CC2)c1
3.43

Query the reported inhibition for Rac GTPase-activating protein 1 (Homo sapiens); item: COCCNC(=O)c1cccc(OC2CCN(Cc3ccccc3OCCO)CC2)c1
11.3

Query the reported inhibition for Rac GTPase-activating protein 1 (Homo sapiens); item: CC1CCCN(C(=O)C(=O)Nc2ccc3nc4n(c(=O)c3c2)CCCCC4)C1 (stereo unspecified)
7.24

Query the reported inhibition for Rac GTPase-activating protein 1 (Homo sapiens); item: CCn1c(SCC(=O)NCc2ccc(F)cc2)nc2c(c1=O)SC(C)C2 (stereo unspecified)
18
